For each record, write down the corresponding growth inhibition.
Experiment: NCI Yeast Anticancer Drug Screen. Data for the cln2 rad14 strain (AID 165);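 further: 0% = growth equal to vehicle treated cultures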
Settings: S. cerevisiae cln2 rad14 strain, at 50.0 µM, hits give high values
The panel holds about 79,000 compounds, 15% with a hit somewhere; the sample as a whole holds those more often.
Use % as the unit, but write only the number.

growth inhibition reported for this compound CC(C)NC(=O)OCc1c(COC(=O)NC(C)C)c(S(C)(=O)=O)n2c1CCC2 : 7.9

Value of growth inhibition reported for the compound Cn1c(COc2ccc(/C=N\N3CCN(/N=C\c4ccc(OCc5c[n+]6ccccc6n5C)cc4)CC3)cc2)c[n+]2ccccc12 is 25.7

growth inhibition reading for CC1=CC=CC(C)(C)C(=O)C1=O : -18.9

Entry ClC1=C(Cl)C2(Cl)CC1(Cl)C1CCCCC12 (stereo not given) , growth inhibition reported as -17.4

Recorded result, Cc1cccc(C(C)(C)C)c1NC(=O)C(=O)Cc1nc2ccccc2s1 , growth inhibition: -41.7

// provenance: PubChem BioAssay (NCI)
